molecular target: Sodium/potassium-transporting ATPase; assay: In vitro evaluation for its ability to inhibit the Na+/K+ ATPase at pH 7.4.; type: protein-complex assay, Canis lupus familiaris
-Log IC50 values for the compounds below.
Hey, just send me the number, nothing else.

Example cases with answers are listed next.
{"columns": ["COMPOUND", "EXPERIMENTAL TARGET", "MEASURED PROPERTY", "RESULT NUMBER"],
 "data": [
  ["COc1c(C)cnc(C[S+]([O-])c2nc3cc(OC(F)F)ccc3[nH]2)c1C (stereo unspecified)", "Sodium/potassium-transporting ATPase", "-Log IC50", 4.4],
  ["COc1cnc(C[S+]([O-])c2nc3cc(OCC(F)(F)F)ccc3[nH]2)c(C)c1OC (stereo unspecified)", "Sodium/potassium-transporting ATPase", "-Log IC50", 4.3],
  ["COc1cnc(C[S+]([O-])c2nc3cc(OC(F)(F)C(F)F)ccc3[nH]2)c(C)c1OC (stereo unspecified)", "Sodium/potassium-transporting ATPase", "-Log IC50", 4.2],
  ["COc1cnc(C[S+]([O-])c2nc3cc(OC(F)F)ccc3[nH]2)c(C)c1OC (stereo unspecified)", "Sodium/potassium-transporting ATPase", "-Log IC50", 4.6],
  ["COc1ccnc(C[S+]([O-])c2nc3cc(OC(F)F)ccc3[nH]2)c1 (stereo unspecified)", "Sodium/potassium-transporting ATPase", "-Log IC50", 4.3]
]}

From here, focus on the item given below.
Ask: What value of -Log IC50 has been recorded for this entry: COc1ccnc(C[S+]([O-])c2nc3cc4c(cc3[nH]2)OC(F)(F)O4)c1C (stereo unspecified)
Reply: 4.6

These entries and their values trace back to ChEMBL document CHEMBL1125404.
